Source of measurements: patent US20090124587A1

# Protocol Summary: Food effect PK study, two single oral 1000 mg doses of abiraterone acetate, fed (high fat) vs fasted
# Assay type: in vivo, human
# Measurement Conditions: human, plasma, oral, 1000 mg, Patient 15; Fed; sample time 46.050 hr
Observed Property: concentration at 46.05 hr (nM)
Number only, in nM; omit the unit.

Annotate the compound C[C@]12CC[C@H](O)CC1=CC[C@@H]1[C@@H]2CC[C@]2(C)C(c3cccnc3)=CC[C@@H]12 [Abiraterone] with its measured concentration at 46.05 hr. 18.1

====

# Protocol Summary: Food effect PK study, two single oral 1000 mg doses of abiraterone acetate, fed (high fat) vs fasted
# Format: in vivo, human
# Measurement Conditions: human, plasma, oral, 1000 mg, Patient 20; 1000 mg; Fasted; read-out: Cl F obs (converted)
Observed Property: clearance (mL/min)
Number only, in mL/min; omit the unit.

Annotate the compound `C[C@]12CC[C@H](O)CC1=CC[C@@H]1[C@@H]2CC[C@]2(C)C(c3cccnc3)=CC[C@@H]12` with its measured clearance. 3680

====

# Protocol Summary: Food effect PK study, two single oral 1000 mg doses of abiraterone acetate, fed (high fat) vs fasted
# Format: in vivo, human
# Measurement Conditions: human, plasma, oral, 1000 mg, Patient 21; 1000 mg; Fasted; read-out: Vz F obs
# Experimental: To measure the amount of abiraterone and abiraterone acetate in the samples, these compounds were extracted from 100 uL human plasma using solid phase extraction (SPE) with cation mixed-mode polymer cartridges. Extracts were evaporated to dryness before reconstitution and analysis. Chromatography was carried out using a Luna™ C5 column (5 μm, 50 mm×2.1 mm id) with a gradient mobile phase consisting of 10 mM ammonium acetate and 2% propan-2-ol in acetonitrile. […]
Observed Property: Vd/F (L)
Number only, in L; omit the unit.

Annotate the compound `C[C@]12CC[C@H](O)CC1=CC[C@@H]1[C@@H]2CC[C@]2(C)C(c3cccnc3)=CC[C@@H]12` with its measured Vd/F. 7190

====

# Protocol Summary: Food effect PK study, two single oral 1000 mg doses of abiraterone acetate, fed (high fat) vs fasted
# Format: in vivo, human
# Measurement Conditions: human, plasma, oral, 1000 mg, Patient 21; Fed
Observed Property: AUC(0-inf) (µM·h)
Number only, in µM·h; omit the unit.

Annotate the compound `C[C@]12CC[C@H](O)CC1=CC[C@@H]1[C@@H]2CC[C@]2(C)C(c3cccnc3)=CC[C@@H]12` with its measured AUC(0-inf). 7.71

====

# Protocol Summary: Food effect PK study, two single oral 1000 mg doses of abiraterone acetate, fed (high fat) vs fasted
# Assay type: in vivo, human
# Measurement Conditions: human, plasma, oral, 1000 mg, Patient 19; Fasted; sample time 24.067 hr
# Procedure: To measure the amount of abiraterone and abiraterone acetate in the samples, these compounds were extracted from 100 uL human plasma using solid phase extraction (SPE) with cation mixed-mode polymer cartridges. Extracts were evaporated to dryness before reconstitution and analysis. Chromatography was carried out using a Luna™ C5 column (5 μm, 50 mm×2.1 mm id) with a gradient mobile phase consisting of 10 mM ammonium acetate and 2% propan-2-ol in acetonitrile. […]
Observed Property: concentration at 24.067 hr

Annotate the molecule `C[C@]12CC[C@H](O)CC1=CC[C@@H]1[C@@H]2CC[C@]2(C)C(c3cccnc3)=CC[C@@H]12` with its measured concentration at 24.067 hr. 21.6 nM

====

# Protocol Summary: Food effect PK study, two single oral 1000 mg doses of abiraterone acetate, fed (high fat) vs fasted
# Format: in vivo, human
# Measurement Conditions: human, plasma, oral, 1000 mg, Patient 15; Fasted
Observed Property: AUC(0-inf)
Could you give the number and then its unit, please?

Annotate the compound `C[C@]12CC[C@H](O)CC1=CC[C@@H]1[C@@H]2CC[C@]2(C)C(c3cccnc3)=CC[C@@H]12` with its measured AUC(0-inf). 2.59 µM·h

====

# Protocol Summary: Food effect PK study, two single oral 1000 mg doses of abiraterone acetate, fed (high fat) vs fasted
# Type: in vivo, human
# Measurement Conditions: human, plasma, oral, 1000 mg, Patient 20; Fasted; sample time 2.267
Observed Property: concentration at 2.267 h (nM)
Number only, in nM; omit the unit.

Annotate the compound `C[C@]12CC[C@H](O)CC1=CC[C@@H]1[C@@H]2CC[C@]2(C)C(c3cccnc3)=CC[C@@H]12` with its measured concentration at 2.267 h. 1700

====

# Protocol Summary: Food effect PK study, two single oral 1000 mg doses of abiraterone acetate, fed (high fat) vs fasted
# Type: in vivo, human
# Measurement Conditions: human, plasma, oral, 1000 mg, Patient 20; Fasted; sample time 3.833
Observed Property: concentration at 3.833 h (nM)
Number only, in nM; omit the unit.

Annotate the compound C[C@]12CC[C@H](O)CC1=CC[C@@H]1[C@@H]2CC[C@]2(C)C(c3cccnc3)=CC[C@@H]12 [Abiraterone] with its measured concentration at 3.833 h. 1270

====

# Protocol Summary: Food effect PK study, two single oral 1000 mg doses of abiraterone acetate, fed (high fat) vs fasted
# Format: in vivo, human
# Measurement Conditions: human, plasma, oral, 1000 mg, Patient 15; Fed; sample time 6.083 hr
Observed Property: concentration at 6.083 hr
Could you give the number and then its unit, please?

Annotate the compound `C[C@]12CC[C@H](O)CC1=CC[C@@H]1[C@@H]2CC[C@]2(C)C(c3cccnc3)=CC[C@@H]12` with its measured concentration at 6.083 hr. 1120 nM

====

# Protocol Summary: Food effect PK study, two single oral 1000 mg doses of abiraterone acetate, fed (high fat) vs fasted
# Assay type: in vivo, human
# Measurement Conditions: human, plasma, oral, 1000 mg, Patient 14; Fasted; sample time 6.050 hr
Observed Property: concentration at 6.05 hr (nM)
Number only, in nM; omit the unit.

Annotate the compound `C[C@]12CC[C@H](O)CC1=CC[C@@H]1[C@@H]2CC[C@]2(C)C(c3cccnc3)=CC[C@@H]12` with its measured concentration at 6.05 hr. 99.8

====

# Protocol Summary: Food effect PK study, two single oral 1000 mg doses of abiraterone acetate, fed (high fat) vs fasted
# Type: in vivo, human
# Measurement Conditions: human, plasma, oral, 1000 mg, Patient 21; Fasted; sample time 4.150
Observed Property: concentration at 4.15 h
Could you give the number and then its unit, please?

Annotate the molecule C[C@]12CC[C@H](O)CC1=CC[C@@H]1[C@@H]2CC[C@]2(C)C(c3cccnc3)=CC[C@@H]12 [Abiraterone] with its measured concentration at 4.15 h. 360 nM

====

# Protocol Summary: Food effect PK study, two single oral 1000 mg doses of abiraterone acetate, fed (high fat) vs fasted
# Type: in vivo, human
# Measurement Conditions: human, plasma, oral, 1000 mg, Patient 21; Fasted; sample time 48.083
Observed Property: concentration at 48.083 h

Annotate the compound C[C@]12CC[C@H](O)CC1=CC[C@@H]1[C@@H]2CC[C@]2(C)C(c3cccnc3)=CC[C@@H]12 [Abiraterone] with its measured concentration at 48.083 h. 0.0164 µM

====

# Protocol Summary: Pharmacokinetic study of abiraterone in hormone refractory prostate cancer patients, oral doses 250-2000 mg/day, fasted
# Assay type: in vivo, human
# Measurement Conditions: male, human; mean; 750 mg/day abiraterone acetate oral, fasted; plasma
Observed Property: Tmax (h)
Number only, in h; omit the unit.

Annotate the compound C[C@]12CC[C@H](O)CC1=CC[C@@H]1[C@@H]2CC[C@]2(C)C(c3cccnc3)=CC[C@@H]12 [Abiraterone] with its measured Tmax. 1.71

====

# Protocol Summary: Food effect PK study, two single oral 1000 mg doses of abiraterone acetate, fed (high fat) vs fasted
# Type: in vivo, human
# Measurement Conditions: human, plasma, oral, 1000 mg, Patient 21; Fed; sample time 24.000
Observed Property: concentration at 24 h (nM)
Number only, in nM; omit the unit.

Annotate the compound C[C@]12CC[C@H](O)CC1=CC[C@@H]1[C@@H]2CC[C@]2(C)C(c3cccnc3)=CC[C@@H]12 [Abiraterone] with its measured concentration at 24 h. 49.3

====

# Protocol Summary: Food effect PK study, two single oral 1000 mg doses of abiraterone acetate, fed (high fat) vs fasted
# Format: in vivo, human
# Measurement Conditions: human, plasma, oral, 1000 mg, Patient 19; 1000 mg; Fasted; read-out: Cl F obs (converted)
Observed Property: clearance (mL/min)
Number only, in mL/min; omit the unit.

Annotate the compound `C[C@]12CC[C@H](O)CC1=CC[C@@H]1[C@@H]2CC[C@]2(C)C(c3cccnc3)=CC[C@@H]12` with its measured clearance. 12200

====

# Protocol Summary: Food effect PK study, two single oral 1000 mg doses of abiraterone acetate, fed (high fat) vs fasted
# Type: in vivo, human
# Measurement Conditions: human, plasma, oral, 1000 mg, Patient 14; Fasted; sample time 4.067 hr
Observed Property: concentration at 4.067 hr (nM)
Number only, in nM; omit the unit.

Annotate the compound `C[C@]12CC[C@H](O)CC1=CC[C@@H]1[C@@H]2CC[C@]2(C)C(c3cccnc3)=CC[C@@H]12` with its measured concentration at 4.067 hr. 205
